Please find below Ki data on Tyrosine-protein phosphatase non-receptor type 1 (Homo sapiens) compiled from the literature.
TARGET ENTITY: Tyrosine-protein phosphatase non-receptor type 1 (Homo sapiens)
Sequence (P18031 whole entry): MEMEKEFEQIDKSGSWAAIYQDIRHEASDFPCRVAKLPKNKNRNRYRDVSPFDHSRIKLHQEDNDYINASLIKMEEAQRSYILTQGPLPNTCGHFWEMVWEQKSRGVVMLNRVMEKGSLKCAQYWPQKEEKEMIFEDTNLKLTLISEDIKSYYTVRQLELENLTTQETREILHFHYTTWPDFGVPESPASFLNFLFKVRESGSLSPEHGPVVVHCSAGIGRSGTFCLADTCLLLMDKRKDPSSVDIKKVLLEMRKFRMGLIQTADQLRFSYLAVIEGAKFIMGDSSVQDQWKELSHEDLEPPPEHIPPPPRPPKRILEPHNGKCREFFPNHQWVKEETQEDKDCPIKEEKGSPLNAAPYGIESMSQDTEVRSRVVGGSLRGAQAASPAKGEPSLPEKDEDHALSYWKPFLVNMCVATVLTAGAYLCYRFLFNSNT
MEASURED ENDPOINT: Ki (nM)

• COc1ccc(C2=NOC(c3ccccc3)C2)c(OC)c1 (stereo not drawn) = 48000
• CCc1cc(CC(NC(C)=O)C(=O)NCCCCOc2cccc(O)c2C(=O)O)ccc1N(C(=O)C(=O)O)c1ccccc1C(=O)O (stereo not drawn) = 42
• CC1(C)CC(Nc2ccc(-c3sc(C(=O)O)c(OCC(=O)O)c3Br)cc2)CC(C)(C)C1 = 250

[P] O=C(O)COc1c(C(=O)O)sc(-c2ccc(C(=O)Nc3ccccc3)cc2)c1Br
[Q] CCc1cc(CC(NC(C)=O)C(=O)NCc2ccc(OC)cc2)ccc1N(C(=O)C(=O)O)c1ccccc1C(=O)O (stereo not drawn)
[R] CCC(CN(C(=O)C(=O)O)c1ccc(C[C@H](NC(=O)OC(C)(C)C)C(=O)NCCCCOc2cccc(O)c2C(=O)OC)cc1)C(=O)O (stereo partly drawn)
[S] CCc1cc(CC(NC(C)=O)C(=O)NCCCCC(=O)N[C@@H](CCC(N)=O)C(=O)O)ccc1N(C(=O)C(=O)O)c1ccccc1C(=O)O (stereo partly drawn)
[T] O=C(O)C(=O)N(c1cc([N+](=O)[O-])ccc1C(=O)O)c1cccc2ccc(O)cc12
(Q) Provide the items ranked by increasing Ki. Kindly provide the labels arranged according to the requested ordering.
(A) S, R, P, Q, T
(S: 330 nM, R: 1700 nM, P: 2500 nM, Q: 4700 nM, T: 7940 nM)

====

System: Tyrosine-protein phosphatase non-receptor type 1 (Homo sapiens) | Read-out: Ki | Origin: multiple publications
MEASURED ENDPOINT: Ki (µM)

Some entries whose results are on file:
- O=C(O)COc1c(O)cc(-c2cc(C(F)(F)F)cc(C(F)(F)F)c2)cc1OCc1ccc(C(F)(F)F)cc1: 1.1
- CCCCCNC(=O)[C@H](Cc1ccc(N(C(=O)C(=O)O)c2ccccc2C(=O)O)cc1)NC(=O)[C@H](Cc1ccc(C(=O)c2ccccc2)cc1)NC(=O)OC(C)(C)C: 1.26
- O=P(O)(O)COc1cccc2c1ccc1ccccc12: 410
- O=C(O)COc1c(C(=O)CO)sc(Br)c1Br: 210

[I] C=CCOC(=O)/C=C\c1cccc(C(F)(F)P(=O)(O)O)c1
[II] CCCCCNC(=O)C(Cc1ccc(N(C(=O)C(=O)O)c2ccccc2C(=O)O)c(CC)c1)NC(C)=O (configuration not stated)
[III] O=C(O)COc1c(C(=O)O)sc(-c2cccnc2)c1Br
[IV] CCCCCNC(=O)[C@H](Cc1ccc(OC(C(=O)O)C(=O)O)cc1)NC(=O)[C@H](Cc1ccccc1)NC(=O)OC(C)(C)C
(Q) Order by Ki, ascending. Please respond with the labels ordered as the question requires.
(A) II, III, IV, I
(II: 1.2 µM, III: 4 µM, IV: 9 µM, I: 8000 µM)

====

TARGET ENTITY: Tyrosine-protein phosphatase non-receptor type 1 (Homo sapiens, UniProt P18031)
Sequence (P18031 whole entry): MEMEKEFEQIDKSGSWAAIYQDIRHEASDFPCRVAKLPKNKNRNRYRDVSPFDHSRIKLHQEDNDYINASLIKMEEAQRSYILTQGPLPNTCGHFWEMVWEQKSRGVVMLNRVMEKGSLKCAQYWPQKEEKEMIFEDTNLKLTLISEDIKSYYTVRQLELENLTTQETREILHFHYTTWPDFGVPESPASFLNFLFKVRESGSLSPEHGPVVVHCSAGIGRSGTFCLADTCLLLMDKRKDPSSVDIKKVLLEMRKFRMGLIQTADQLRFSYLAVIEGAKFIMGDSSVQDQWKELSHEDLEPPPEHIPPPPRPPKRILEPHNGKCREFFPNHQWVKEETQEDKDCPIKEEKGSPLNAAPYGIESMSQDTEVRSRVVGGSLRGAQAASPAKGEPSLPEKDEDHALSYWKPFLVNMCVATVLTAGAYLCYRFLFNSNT
Literature roundup of Tyrosine-protein phosphatase non-receptor type 1 (Homo sapiens, UniProt P18031) data, read-out Ki.
MEASURED ENDPOINT: Ki (µM)

Please review the entries below; each comes with its answer.
- CCCC(=O)Nc1cccc(-c2cc(C(=O)O)no2)c1: 148
- O=C(O)COc1c(C(=O)O)sc(-c2ccc3ccccc3c2)c1Br: 3.3
- NC(=O)[C@@H](CCC(=O)O)NC(=O)c1ccc2cc(C(F)(F)P(=O)(O)O)ccc2c1: 12
- CCCCCCCCCCCCCCCc1cc(O[C@@H]2O[C@H](CO)[C@@H](O)[C@H](O)[C@H]2O)cc(O)c1C(=O)Oc1cc(C)c(C(=O)O)c(O)c1: 0.1
- O=P(O)(O)C(F)(F)c1cc(O)c2ccccc2c1: 93
- CCCCCNC(=O)[C@H](Cc1ccc(OCC(=O)O)c(C(=O)O)c1)NC(=O)[C@H](Cc1ccccc1)NC(=O)Cc1ccc(C(F)(F)F)cc1: 0.59
- O=C(O)c1noc(-c2cccc(I)c2)c1CO: 126
- CCc1cc(CC(NC(C)=O)C(=O)N[C@H](Cc2ccc([N+](=O)[O-])cc2)C(=O)NC)ccc1N(C(=O)C(=O)O)c1ccccc1C(=O)O (stereo not given in full): 2
- CCCCC(NC1=NS(=O)(=O)c2ccccc21)C(=O)NC[C@@H](NC(=O)C1CCCC(NC(=O)[C@H](CC(C)(C)C)n2cc(CC3CCCCC3)nn2)C1)C(=O)NC(CCCCNC(=O)CCCC[C@@H]1SCC2NC(=O)NC21)C(N)=O (stereo not given in full): 3.1
- COC(=O)c1c(O)cccc1OCCCCNC(=O)[C@@H](Cc1ccc(OCC(=O)O)c(C(=O)O)c1)NC(=O)OC(C)(C)C: 2

[P] COC(=O)C1C(c2ccc(OC)cc2OC)=NOC1c1ccccc1 (stereo not given)
[Q] CCc1cc(CC(NC(C)=O)C(=O)NCCCCC(=O)N[C@@H](Cc2ccccc2)C(=O)O)ccc1N(C(=O)C(=O)O)c1ccccc1C(=O)O (stereo not given in full)
(Q) Please state the entry with greater Ki among P and Q . Bench note: the answer is the label of the chosen record.
(A) P
(P: 135 µM, Q: 0.126 µM)

====

Across several studies, compounds have been characterized by their Ki on the protein given by its sequence; a selection follows.
Target sequence: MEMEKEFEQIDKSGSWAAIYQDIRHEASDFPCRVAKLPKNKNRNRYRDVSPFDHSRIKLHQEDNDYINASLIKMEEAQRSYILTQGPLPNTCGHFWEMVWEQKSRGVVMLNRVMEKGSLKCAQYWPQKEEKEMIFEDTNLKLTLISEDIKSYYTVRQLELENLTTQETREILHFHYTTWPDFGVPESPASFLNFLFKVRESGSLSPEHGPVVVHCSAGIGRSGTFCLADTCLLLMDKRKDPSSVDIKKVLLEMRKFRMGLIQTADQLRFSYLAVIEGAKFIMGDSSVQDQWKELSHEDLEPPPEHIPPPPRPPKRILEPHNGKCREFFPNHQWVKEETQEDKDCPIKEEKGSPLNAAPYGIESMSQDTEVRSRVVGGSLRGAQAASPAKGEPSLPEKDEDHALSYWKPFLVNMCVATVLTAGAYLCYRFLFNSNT
MEASURED ENDPOINT: Ki (µM)

- CCc1cc(CC(NC(C)=O)C(=O)NCc2ccc([N+](=O)[O-])cc2)ccc1N(C(=O)C(=O)O)c1ccccc1C(=O)O (centres undefined): 0.54

[P] O=C(O)COc1c(-c2nnn[nH]2)sc(-c2cccc(NC3CCCCC3)c2)c1Br
[Q] CCc1cc(CC(NC(C)=O)C(=O)NCCCCC(=O)NC(C(=O)O)c2c[nH]c3ccccc23)ccc1N(C(=O)C(=O)O)c1ccccc1C(=O)O (centres undefined)
(Q) Lowest Ki? choose P or Q # respond with the chosen item's label
(A) Q

====

// compounds with Ki on Tyrosine-protein phosphatase non-receptor type 1 (Homo sapiens, UniProt P18031), multi-source literature
MEASURED ENDPOINT: Ki (µM)

• NC(=O)c1ccc2cccc(N(C(=O)C(=O)O)c3ccccc3C(=O)O)c2c1 = 3.98
• CC[C@H](C)[C@H](NC(=O)CCCCNC(=O)[C@@H](Cc1ccc(N(C(=O)C(=O)O)c2ccccc2C(=O)O)cc1)NC(C)=O)C(=O)O = 3.98

[1] CCc1cc(CC(NC(C)=O)C(=O)NCCCCC(=O)N[C@H](C(=O)O)C(C)CC)ccc1N(C(=O)C(=O)O)c1ccccc1C(=O)O (stereo partly drawn)
[2] Nc1c(C(=O)O)noc1-c1ccccc1
[3] CN(c1ccc(-c2sc(C(=O)O)c(OCC(=O)O)c2Br)cc1)S(=O)(=O)c1ccc(C(F)(F)F)cc1
(Q) Please list the entries, largest Ki first. Your reply should list the labels following the order given in the request.
(A) 2, 3, 1
